Test: Pharmacokinetic profile in rat plasma following oral administration
Assay type: in vivo
Conditions: female, rat, po, 0.2 mg/kg, individual rats
Description: The main objectives of this example were: • Quantification of Compound 1, Compound 2, Compound 3 and Laquinimod in rat plasma using LC/MS/MS bioanalytical method. • Characterization of the pharmacokinetic profile of Compound 1, Compound 2, Compound 3 and Laquinimod following oral (PO) administration at a dose of 0.2 mg/kg. • The measurement DELAQ concentrations in the collected plasma samples. […] The actual sampling time were recorded. […]
MEASURED QUANTITY: AUC(0-t) (ng·h/mL)
// return numeric value only (unit: ng·h/mL, not printed)

# example entries with known answers
[
  {
    "COMPOUND": "CCN(C(=O)c1c(O)c2c(Cl)cccc2n(C)c1=O)c1ccccc1 [Laquinimod, reference compound]",
    "SCALE UNIT": "ng·h/mL",
    "AUC(0-t)": 11000
  },
  {
    "COMPOUND": "[2H]c1c([2H])c([2H])c(N(CC)C(=O)c2c(O)c3c(Cl)cccc3n(C)c2=O)c([2H])c1[2H] [Compound 1]",
    "SCALE UNIT": "ng·h/mL",
    "AUC(0-t)": 13700
  }
]

Please examine the following record next.
Prompt: Recorded AUC(0-t) for [2H]C([2H])([2H])C([2H])([2H])N(C(=O)c1c(O)c2c(Cl)cccc2n(C)c1=O)c1ccccc1 [Compound 2] , please?
Response: 10000

----------
Assay: Pharmacokinetic profile in rat plasma following oral administration
Format: in vivo
Details: female, rat, po, 0.2 mg/kg, individual rats, read-out: Cmax
Procedure: The main objectives of this example were: • Quantification of Compound 1, Compound 2, Compound 3 and Laquinimod in rat plasma using LC/MS/MS bioanalytical method. • Characterization of the pharmacokinetic profile of Compound 1, Compound 2, Compound 3 and Laquinimod following oral (PO) administration at a dose of 0.2 mg/kg. • The measurement DELAQ concentrations in the collected plasma samples. […] The actual sampling time were recorded. […]
MEASURED QUANTITY: Cmax (ng/mL)
// return numeric value only (unit: ng/mL, not printed)

# example entries with known answers
[
  {
    "COMPOUND": "[2H]c1c([2H])c([2H])c(N(CC)C(=O)c2c(O)c3c(Cl)cccc3n(C)c2=O)c([2H])c1[2H] [Compound 1]",
    "MEASURED QUANTITY": "Cmax",
    "REPORTED": 945
  },
  {
    "COMPOUND": "CCN(C(=O)c1c(O)c2c(Cl)cccc2n(C)c1=O)c1ccccc1 [Laquinimod, reference compound]",
    "MEASURED QUANTITY": "Cmax",
    "REPORTED": 770
  },
  {
    "COMPOUND": "[2H]C([2H])([2H])C([2H])([2H])N(C(=O)c1c(O)c2c(Cl)cccc2n(C)c1=O)c1ccccc1 [Compound 2]",
    "MEASURED QUANTITY": "Cmax",
    "REPORTED": 704
  }
]

Please examine the following record next.
Prompt: Recorded Cmax for [2H]c1c([2H])c([2H])c(N(C(=O)c2c(O)c3c(Cl)cccc3n(C)c2=O)C([2H])([2H])C([2H])([2H])[2H])c([2H])c1[2H] [Compound 3] , please?
Response: 908
